Reference source for all entries: ChEMBL document CHEMBL3885881

Give CARBON DIOXIDE for every item shown.
- Organism: Rattus norvegicus
- Assay details: DrugMatrix - Regimen: Daily Repeat
- Assay type: toxicity, organism-based, Sprague-Dawley
- Set-up: regimen Daily Repeat, gender Male, age 6-8 weeks
- Measurement setup: in vivo, po, 10 mg/kg, 120 h, tissue Plasma, route oral GAVAGE, dose level Low, time 5 day, […]

The compound COCCOC(=O)C1=C(C)NC(C)=C(C(=O)OC(C)C)C1c1cccc([N+](=O)[O-])c1 (centres undefined) showed CARBON DIOXIDE equal to 31.67 mmol/L

Per the record, COc1ccc2cc([C@H](C)C(=O)O)ccc2c1 has CARBON DIOXIDE of 19.33 mmol/L

compound CC(C)CC(N(C)C)C1(c2ccc(Cl)cc2)CCC1 (centres undefined) , CARBON DIOXIDE observed: 34.33 mmol/L

The compound listed as CCOC(=O)C1=C(C)NC(C)=C(C(=O)OC)C1c1cccc([N+](=O)[O-])c1 (centres undefined) shows CARBON DIOXIDE equal to 32.33 mmol/L

---

- Species: Rattus norvegicus
- Assay details: DrugMatrix - Regimen: Daily Repeat
- Type: toxicity, organism-based, Sprague-Dawley
- Design: regimen Daily Repeat, gender Male, age 6-8 weeks
- Measurement setup: in vivo, po, 0 mg/kg, 120 h, tissue Blood, route oral GAVAGE, dose level Control, time 5 day, vehicle .5 % CMC
Test readout: MONOCYTE
Reply with the number and its unit after it.

Looking up C#C[C@]1(O)CC[C@H]2[C@@H]3CCc4cc(OC)ccc4[C@H]3CC[C@@]21C , I see its MONOCYTE listed as 0.17%

The compound identified as C[C@](O)(CS(=O)(=O)c1ccc(F)cc1)C(=O)Nc1ccc(C#N)c(C(F)(F)F)c1 [(R)-BICALUTAMIDE] registered its MONOCYTE at 0.83%

Lab note: CC[C@@H](CO)NCCN[C@@H](CC)CO gave MONOCYTE of 0.83%

Sure, the documented MONOCYTE for CN1CCC(=C2c3ccccc3C=Cc3ccccc32)CC1 is 4.33%

The compound listed as O=[N+]([O-])c1ccccc1 shows MONOCYTE equal to 3.27%

In plain terms, CC(C)[C@H]1CC[C@H](C(=O)N[C@H](Cc2ccccc2)C(=O)O)CC1 [NATEGLINIDE] has a documented MONOCYTE of 1.33%

Documented MONOCYTE of Clc1ccc2c(c1)C(N1CCNCC1)=Nc1ccccc1O2 : 1.17%

MONOCYTE reading for O=C1CCC(N2C(=O)c3ccccc3C2=O)C(=O)N1 (stereo not given) [THALIDOMIDE] : 2.37%

# compound CO[C@H]1/C=C/O[C@@]2(C)Oc3c(C)c(O)c4c(c3C2=O)C2=NC3(CCN(CC(C)C)CC3)NC2=C(NC(=O)/C(C)=C\C=C\[C@H](C)[C@H](O)[C@@H](C)[C@@H](O)[C@@H](C)[C@H](OC(C)=O)[C@@H]1C)C4=O ; its MONOCYTE = 0.17%

# MONOCYTE of N=C(N)NC(=O)c1nc(Cl)c(N)nc1N [AMILORIDE] = 0.83%

The compound listed as OC(CCN1CCCCC1)(c1ccccc1)C1CCCCC1 (stereo not given) shows MONOCYTE equal to 0.33%

Reported MONOCYTE for Cc1onc(-c2ccccc2)c1-c1ccc(S(N)(=O)=O)cc1 was 2.2%

compound CNC(=C[N+](=O)[O-])NCCSCc1ccc(CN(C)C)o1 , MONOCYTE observed: 0.17%

For this compound ( C[C@]1(Cn2ccnn2)[C@H](C(=O)O)N2C(=O)C[C@H]2S1(=O)=O ), measured MONOCYTE is 0.17%

# MONOCYTE (compound: CN1C(=O)COc2c(C(=O)NC3CN4CCC3CC4)cc(Cl)cc21 (stereo not given) ) is 0.67%

---

- Species on record: Rattus norvegicus
- Assay details: DrugMatrix - Regimen: Daily Repeat
- Format: toxicity, organism-based, Sprague-Dawley
- Parameters: regimen Daily Repeat, gender Male, age 6-8 weeks
- Measurement setup: in vivo, iv, 0 mg/kg, 120 h, tissue Blood, dose level Control, time 5 day, vehicle 100 % SALINE
Assignment: determine reported HEMOGLOBIN for the given compounds.

Entry under test: CCC1=C[C@@H]2CN(C1)Cc1c([nH]c3ccccc13)[C@@](C(=O)OC)(c1cc3c(cc1OC)N(C)[C@H]1[C@@](O)(C(=O)OC)[C@H](OC(C)=O)[C@]4(CC)C=CCN5CC[C@]31[C@@H]54)C2 [VINORELBINE] . Its HEMOGLOBIN was 14.42 G/DL

Value of HEMOGLOBIN reported for the compound COc1cccc2c1C(=O)c1c(O)c3c(c(O)c1C2=O)C[C@@](O)(C(=O)CO)C[C@@H]3O[C@H]1C[C@H](N)[C@@H](O)[C@H](C)O1 [EPIRUBICIN] is 14.6 G/DL

The recorded HEMOGLOBIN for entry CC(=O)N[C@@H]1[C@H](Oc2c3cc4cc2Oc2ccc(cc2Cl)[C@@H](O[C@@H]2O[C@@H](CO)[C@@H](O)[C@H](O)[C@@H]2NC(C)=O)[C@@H]2NC(=O)[C@H](NC(=O)[C@@H]4NC(=O)[C@H]4NC(=O)[C@@H](Cc5ccc(c(Cl)c5)O3)NC(=O)[C@H](N)c3ccc(O)c(c3)Oc3cc(O)cc4c3)c3ccc(O)c(c3)-c3c(O[C@H]4O[C@H](CO)[C@@H](O)[C@@H](O)[C@@H]4O)cc(O)cc3[C@@H](C(=O)O)NC2=O)O[C@@H](CO)[C@@H](O)[C@@H]1O equals 13.78 G/DL

Short answer for CC[C@]1(O)C[C@@H]2CN(CCc3c([nH]c4ccccc34)[C@@](C(=O)OC)(c3cc4c(cc3OC)N(C)[C@H]3[C@@](O)(C(=O)OC)[C@H](OC(C)=O)[C@]5(CC)C=CCN6CC[C@]43[C@@H]65)C2)C1 [VINBLASTINE] : HEMOGLOBIN was 14.4 G/DL

Lookup result for CCc1c2c(nc3ccc(OC(=O)N4CCC(N5CCCCC5)CC4)cc13)-c1cc3c(c(=O)n1C2)COC(=O)[C@]3(O)CC [IRINOTECAN] ; measured HEMOGLOBIN: 14.6 G/DL

---

- Species: Rattus norvegicus
- Assay details: DrugMatrix - Regimen: Daily Repeat
- Format: toxicity, organism-based, Sprague-Dawley
- Set-up: regimen Daily Repeat, gender Male, age 6-8 weeks
- Measurement setup: in vivo, po, 1500 mg/kg, 120 h, tissue Plasma, route oral GAVAGE, dose level High, time 5 day, vehicle .5 % CMC
Could you please report measured CHOLESTEROL for the items listed next?

Reported CHOLESTEROL for NC(=O)c1cnccn1 [PYRAZINAMIDE] was 70.67 mg/dL

Measured CHOLESTEROL, Cc1cc(=O)n(-c2ccccc2)n1C [ANTIPYRINE] : 72.33 mg/dL

Form field CHOLESTEROL, entry Cc1ccc(S(=O)(=O)NC(=O)NN2CC3CCCC3C2)cc1 (configuration not stated) [GLICLAZIDE] : 44.67 mg/dL

Summary for this compound, CNC(=C[N+](=O)[O-])NCCSCc1ccc(CN(C)C)o1 [RANITIDINE] : CHOLESTEROL is 69.67 mg/dL

CHOLESTEROL recorded for this compound, O=C(N[C@H](CO)[C@H](O)c1ccc([N+](=O)[O-])cc1)C(Cl)Cl [CHLORAMPHENICOL] , is 56 mg/dL

Quick note, CHOLESTEROL for C[C@]1(Cn2ccnn2)[C@H](C(=O)O)N2C(=O)C[C@H]2S1(=O)=O [TAZOBACTAM] landed at 62.67 mg/dL

response.value for CO[C@H]1/C=C/O[C@@]2(C)Oc3c(C)c(O)c4c(c3C2=O)C2=NC3(CCN(CC(C)C)CC3)NC2=C(NC(=O)/C(C)=C\C=C\[C@H](C)[C@H](O)[C@@H](C)[C@@H](O)[C@@H](C)[C@H](OC(C)=O)[C@@H]1C)C4=O [RIFABUTIN] (field: CHOLESTEROL) = 104 mg/dL

---

- Species on record: Rattus norvegicus
- Assay details: DrugMatrix - Regimen: Daily Repeat
- Format: toxicity, organism-based, Sprague-Dawley
- Set-up: regimen Daily Repeat, gender Male, age 6-8 weeks
- Measurement setup: in vivo, ip, 0 mg/kg, […], tissue Blood, route intraperitoneal, dose level Control, time 28 day, vehicle 100 % SALINE
Test readout: ABSOLUTE MONOCYTE (cells/µL)
Dear colleague, please return just the value in cells/µL, with no unit written.

Per the records, this molecule ( CCN[C@@H]1C[C@H](N)[C@@H](O[C@H]2OC(CN)=CC[C@H]2N)[C@H](O)[C@H]1O[C@H]1OC[C@](C)(O)[C@H](NC)[C@H]1O [NETILMICIN] ) has ABSOLUTE MONOCYTE equal to 210
